# Tested on: Cerebellum
# Test Method Notes: Biodistribution in NMRI mouse cerebellum at 37 MBq/mL, iv after 2 mins postinjection by gamma counting
# Format: ADME, organism-based
# Test Conditions: in vivo
// reported Drug uptake per item
Output should be the measured figure followed by the unit it is expressed in.

# annotated cases, reported Drug uptake shown
Molecule	Readout	Reported Measurement
CNc1ccc(-c2nc3ccc(O)cc3s2)cc1 [PITTSBURGH COMPOUND B UNLABELLED]	Drug uptake	0.2 %ID
[11CH3]Nc1ccc(-c2nc3cc(O)ccc3s2)cc1	Drug uptake	0.57 %ID
[11CH3]Nc1ccc(-c2nc3c(O)cccc3s2)cc1	Drug uptake	0.2 %ID

Turning to the following molecule.
### Prompt Look up and report measured Drug uptake for this entry: [11CH3]Nc1ccc(-c2nc3cccc(O)c3s2)cc1
### Response 0.22 %ID

----------
// reported Drug uptake per item
# Test Method Notes: Biodistribution in NMRI mouse cerebrum at 37 MBq/mL, iv after 60 mins postinjection assessed per gram of tissue by gamma counting
# Assay type: ADME, organism-based
# Test Conditions: in vivo, 1 h
Kindly provide the numeric value in % ID/g only, without the unit symbol.

Molecule	Reported Measurement
[11CH3]Nc1ccc(-c2nc3cc(O)ccc3s2)cc1	0.09
CNc1ccc(-c2nc3ccc(O)cc3s2)cc1 [PITTSBURGH COMPOUND B UNLABELLED]	0.6

### Prompt Look up and report measured Drug uptake for this entry: [11CH3]Nc1ccc(-c2nc3cccc(O)c3s2)cc1
### Response 0.16

### Prompt Look up and report measured Drug uptake for this entry: [11CH3]Nc1ccc(-c2nc3c(O)cccc3s2)cc1
### Response 0.3

----------
// reported Drug uptake per item
# Test system: Liver
# Test Method Notes: Biodistribution in NMRI mouse liver at 37 MBq/mL, iv after 60 mins postinjection assessed per gram of tissue by gamma counting
# Type: ADME, organism-based
# Test Conditions: in vivo, 1 h
Kindly provide the numeric value in % ID/g only, without the unit symbol.

# annotated cases, reported Drug uptake shown
Compound	Drug uptake [% ID/g]
CNc1ccc(-c2nc3ccc(O)cc3s2)cc1 [PITTSBURGH COMPOUND B UNLABELLED]	5
[11CH3]Nc1ccc(-c2nc3cccc(O)c3s2)cc1	4
[11CH3]Nc1ccc(-c2nc3cc(O)ccc3s2)cc1	2.2

### Prompt Look up and report measured Drug uptake for this entry: [11CH3]Nc1ccc(-c2nc3c(O)cccc3s2)cc1
### Response 3.7

----------
# Tested on: Blood
# Test Method Notes: Biodistribution in NMRI mouse blood at 37 MBq/mL, iv after 2 mins postinjection by gamma counting
# Format: ADME, organism-based
# Test Conditions: in vivo
Readout: Drug uptake (%ID)
Kindly provide the numeric value in %ID only, without the unit symbol.

Compound	Drug uptake, %ID
CNc1ccc(-c2nc3ccc(O)cc3s2)cc1 [PITTSBURGH COMPOUND B UNLABELLED]	7.9

### Prompt Look up and report measured Drug uptake for this entry: [11CH3]Nc1ccc(-c2nc3c(O)cccc3s2)cc1
### Response 13.8

### Prompt Look up and report measured Drug uptake for this entry: [11CH3]Nc1ccc(-c2nc3cc(O)ccc3s2)cc1
### Response 6

### Prompt Look up and report measured Drug uptake for this entry: [11CH3]Nc1ccc(-c2nc3cccc(O)c3s2)cc1
### Response 9.8

Recorded values, source ChEMBL document CHEMBL1137725.
